B1: glmS ribozyme (parent)
chain: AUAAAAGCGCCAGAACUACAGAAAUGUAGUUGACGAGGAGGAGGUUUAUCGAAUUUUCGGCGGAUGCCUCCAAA

Variants of: B1
assay protocol: self-cleavage kobs at 160 uM GlcN6P; higher = faster cleavage; RNA array
measurement context: with glucosamine-6-phosphate
Variants at the floor of the assay were thinned out.

mutation code | self-cleavage kobs at 160 uM GlcN6P
A42C U54A | < 1e-05 s⁻¹
C10U A33U G62U C71A | < 1e-05 s⁻¹
A6C U49G G62A A64G | < 1e-05 s⁻¹
G40U U49C | < 1e-05 s⁻¹
C34U U47G | < 1e-05 s⁻¹
U31C G40U | 4.05e-05 s⁻¹
A15C U30G U31G | 0.00201 s⁻¹
A36C G41C C50U A64U C68A | < 1e-05 s⁻¹
A6G U30G G59U | < 1e-05 s⁻¹
G32U | 4.88e-05 s⁻¹
G38U U55G | < 1e-05 s⁻¹
A42G G63U | < 1e-05 s⁻¹
G32C A39G | < 1e-05 s⁻¹
A12C U54C | 0.00117 s⁻¹
G9U U45C | < 1e-05 s⁻¹
G41C A48G G63U | < 1e-05 s⁻¹
C16U G43U G59U | < 1e-05 s⁻¹
A14C G35U | < 1e-05 s⁻¹
G37A U45G | 8.96e-05 s⁻¹
C50G U54G | 7.22e-05 s⁻¹
C16U G29C G44U C67G | 0.000224 s⁻¹
C70G C71G | 3.85e-05 s⁻¹
A15G | 0.00423 s⁻¹
A6G G32U G40A C61G | < 1e-05 s⁻¹

This collection of values is drawn from the supplement of paper PMC7125110.
